study_system: T1, monkey GFRα3 expressed with a C-terminal myc-myc-hexahistidine tag (monkey (Mf), UniProt O60609 32-374 (human entry), limits assumed)
T1 construct: also called MfGFRα3-mmh; MfGFRα3-mmH
T1 chain: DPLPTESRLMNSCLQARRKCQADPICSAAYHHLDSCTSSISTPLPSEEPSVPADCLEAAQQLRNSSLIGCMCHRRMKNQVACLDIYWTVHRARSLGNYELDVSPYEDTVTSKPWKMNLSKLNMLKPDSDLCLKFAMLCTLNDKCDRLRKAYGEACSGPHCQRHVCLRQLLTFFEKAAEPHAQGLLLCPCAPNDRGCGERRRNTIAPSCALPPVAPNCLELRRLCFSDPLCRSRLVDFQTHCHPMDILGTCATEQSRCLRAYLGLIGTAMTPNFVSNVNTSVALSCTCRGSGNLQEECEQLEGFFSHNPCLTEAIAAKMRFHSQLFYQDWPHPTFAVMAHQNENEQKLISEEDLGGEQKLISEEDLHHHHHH
test_protocol: SPR, Ab captured, 25C
experimental_endpoint: pKd
Quick note: pKd means taking -log10 of the concentration in moles per liter.

H4H2293P (antibody, human IgG4, V domains shown, human IgG4 Fc (H4H)) VH: QVQLVESGGGVVQPGRSLRLSCAASGFSFSDYVMHWVRQAPGKGLEWVASIWFDGSNELYADSVKGRFTISRDNSKNTLFLQMNSLRAEDTAVYYCAKKGVLVATSAFHIWGQGTMVTVSS VL: AIQMTQSPSSLSASVGDRVTITCRASQNINNYLNWYHQKPGKAPNLLIYAASSLQSGVPSRFSGSGSGTDYTLTISSLQPEDFGNYYCQQSYSTSMYTFGQGTKLEIK ... 9.84

Inquiry: Request the reported pKd associated with H4H2344S (antibody, human IgG4, V domains shown, human IgG4 Fc (H4H)) VH: EVQLVESGGGVVQPGRSLRLSCAASGFSFSDYVMHWVRQAPGKGLEWVASIWFDGSNEFYADSVKGRFTISRDNSKNTLFLQMNSLRAEDTAVYYCAKKGVLVATSAFDIWGQGTMVTVSS VL: DIQMTQSPSSLSASVGDRVTITCRASQSINNYLNWYHQKPGKAPKLLIYAASSLQSGVPSRFSGSGSGTDYTLTISSLQPEDFGNYYCQQSYRTSMYTFGQGTKVEIK
Reply text: 8.96
